- Target or test system: PKG1α(h) (Homo sapiens, UniProt Q13976)
- Construct: purchased Millipore (IC50 Profiler Express service)
- Sequence (Q13976 1-671): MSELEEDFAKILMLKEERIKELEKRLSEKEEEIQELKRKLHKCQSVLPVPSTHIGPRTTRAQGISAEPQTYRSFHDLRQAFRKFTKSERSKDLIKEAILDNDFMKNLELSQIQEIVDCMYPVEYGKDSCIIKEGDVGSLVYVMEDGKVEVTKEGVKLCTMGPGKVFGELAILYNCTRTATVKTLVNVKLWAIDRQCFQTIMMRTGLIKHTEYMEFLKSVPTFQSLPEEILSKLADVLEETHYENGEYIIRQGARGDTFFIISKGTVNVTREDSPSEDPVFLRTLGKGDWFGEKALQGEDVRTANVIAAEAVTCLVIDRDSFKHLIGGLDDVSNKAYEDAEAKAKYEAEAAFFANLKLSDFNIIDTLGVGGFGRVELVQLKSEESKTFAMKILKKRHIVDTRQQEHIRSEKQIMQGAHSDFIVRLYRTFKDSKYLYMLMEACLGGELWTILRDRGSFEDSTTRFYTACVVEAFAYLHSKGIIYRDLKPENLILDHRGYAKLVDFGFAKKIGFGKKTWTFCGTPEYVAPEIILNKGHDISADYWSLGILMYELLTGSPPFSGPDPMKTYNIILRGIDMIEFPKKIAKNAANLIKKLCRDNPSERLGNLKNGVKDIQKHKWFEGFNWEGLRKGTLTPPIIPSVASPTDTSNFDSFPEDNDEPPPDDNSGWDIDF
- Measurement protocol: Kinase Profiling Assay
- Assay type: biochemical
- Test parameters: 100 μM peptide
Each entry below carries its reported PKG1α(h) % activity.
Write the number in % without appending the unit.

[Q] Give recorded PKG1α(h) % activity with PKG1α(h) (Homo sapiens, UniProt Q13976) for the following sequence: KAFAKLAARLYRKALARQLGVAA [MMI-0400]
[A] 58

----------
- Target or test system: CaMKIV(h) (Homo sapiens, UniProt Q16566)
- Sequence (Q16566 1-473): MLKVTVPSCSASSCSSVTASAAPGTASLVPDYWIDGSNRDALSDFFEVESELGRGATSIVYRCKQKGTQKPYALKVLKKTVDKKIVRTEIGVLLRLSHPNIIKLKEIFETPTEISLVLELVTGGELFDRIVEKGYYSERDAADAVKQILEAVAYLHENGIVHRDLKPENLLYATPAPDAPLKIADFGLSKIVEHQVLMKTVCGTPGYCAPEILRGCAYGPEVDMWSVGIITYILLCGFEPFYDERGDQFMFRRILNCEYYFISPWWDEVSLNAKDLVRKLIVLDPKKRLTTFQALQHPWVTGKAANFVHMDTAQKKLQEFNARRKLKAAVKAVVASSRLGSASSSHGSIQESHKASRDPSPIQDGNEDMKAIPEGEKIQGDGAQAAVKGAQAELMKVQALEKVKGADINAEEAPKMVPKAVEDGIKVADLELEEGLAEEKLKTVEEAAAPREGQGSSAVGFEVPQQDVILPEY
- Measurement protocol: Kinase Profiling Assay
- Type: biochemical
- Test parameters: 100 μM peptide
Overview of reported CaMKIV(h) % activity across a group of sequences:
Unit % implied. Number only.

// known answers, use as guide
[
  {
    "Sequence content": "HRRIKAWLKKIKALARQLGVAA (Mammalian) [MMI-0500]",
    "Target or test system": "CaMKIV(h) (Homo sapiens, UniProt Q16566)",
    "Readout": "CaMKIV(h) % activity",
    "Observed value": "−1"
  },
  {
    "Sequence content": "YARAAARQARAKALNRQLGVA (Mammalian) [MMI-0200]",
    "Target or test system": "CaMKIV(h) (Homo sapiens, UniProt Q16566)",
    "Readout": "CaMKIV(h) % activity",
    "Observed value": 71
  }
]

[Q] Which measured CaMKIV(h) % activity value corresponds to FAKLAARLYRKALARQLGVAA [MMI-0300] ?
[A] 17

[Q] Which measured CaMKIV(h) % activity value corresponds to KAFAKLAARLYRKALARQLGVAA [MMI-0400] ?
[A] 18
